Target: T1, IL-18 receptors on HEK-Blue IL-18 reporter cells (UniProt Q13478 19-541; O95256 20-599, limits assumed); note: unit not given here
T1 sequence (looked up) 1: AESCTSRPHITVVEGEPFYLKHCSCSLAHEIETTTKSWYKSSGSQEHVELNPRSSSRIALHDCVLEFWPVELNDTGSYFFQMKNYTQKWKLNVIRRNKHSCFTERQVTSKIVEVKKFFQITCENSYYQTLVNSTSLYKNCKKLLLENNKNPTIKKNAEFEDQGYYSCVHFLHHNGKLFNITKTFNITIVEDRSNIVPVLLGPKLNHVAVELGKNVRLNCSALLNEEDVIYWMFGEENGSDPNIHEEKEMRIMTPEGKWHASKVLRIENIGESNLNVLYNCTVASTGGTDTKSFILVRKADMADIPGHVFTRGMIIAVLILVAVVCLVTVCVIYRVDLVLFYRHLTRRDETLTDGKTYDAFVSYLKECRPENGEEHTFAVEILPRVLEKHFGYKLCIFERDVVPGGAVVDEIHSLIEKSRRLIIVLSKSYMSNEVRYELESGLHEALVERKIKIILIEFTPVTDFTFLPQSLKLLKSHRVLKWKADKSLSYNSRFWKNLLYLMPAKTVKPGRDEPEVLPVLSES
T1 sequence (looked up) 2: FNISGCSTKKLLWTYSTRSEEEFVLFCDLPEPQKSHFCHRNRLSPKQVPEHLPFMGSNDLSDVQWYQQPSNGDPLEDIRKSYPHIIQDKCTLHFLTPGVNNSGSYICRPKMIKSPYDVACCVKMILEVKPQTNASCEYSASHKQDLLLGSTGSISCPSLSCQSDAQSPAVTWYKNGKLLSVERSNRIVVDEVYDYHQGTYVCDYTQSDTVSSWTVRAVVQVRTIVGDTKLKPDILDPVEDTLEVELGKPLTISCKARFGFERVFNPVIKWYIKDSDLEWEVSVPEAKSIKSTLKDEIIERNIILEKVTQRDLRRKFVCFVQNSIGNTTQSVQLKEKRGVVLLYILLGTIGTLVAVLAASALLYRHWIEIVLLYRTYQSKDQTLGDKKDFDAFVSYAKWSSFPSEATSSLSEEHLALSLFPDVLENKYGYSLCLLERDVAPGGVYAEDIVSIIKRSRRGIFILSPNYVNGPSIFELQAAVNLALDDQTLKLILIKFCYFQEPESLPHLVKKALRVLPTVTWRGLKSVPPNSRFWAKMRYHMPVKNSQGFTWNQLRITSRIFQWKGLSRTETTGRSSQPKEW
Assay: cell-based or functional assay
RESULT TYPE: HEK-Blue activity, No BP, DF-10000
Reply briefly: the number, and no unit.

IL-18 variant S36E, D37E, D40V, N41S, K53Y, S55V, H109Y (ligand) YFGKLESKLSVIRNLNDQVLFIDQGNRPLFEDMTDEEMRVSAPRTIFIISMYYDVQPRGMAVTISVKSEKISTLSSENKIISFKEMNPPDNIKDTKSDIIFFQRSVPGYDNKMQFESSSYEGYFLASEKERDLFKLILKKEDELGDRSIMFTVQNED = 0.09
IL-18 variant K53D, S55T, H109I (ligand) YFGKLESKLSVIRNLNDQVLFIDQGNRPLFEDMTDSDMRDNAPRTIFIISMYDDTQPRGMAVTISVKSEKISTLSSENKIISFKEMNPPDNIKDTKSDIIFFQRSVPGIDNKMQFESSSYEGYFLASEKERDLFKLILKKEDELGDRSIMFTVQNED = 0.13
IL-18 variant K53D, S55E (ligand) YFGKLESKLSVIRNLNDQVLFIDQGNRPLFEDMTDSDMRDNAPRTIFIISMYDDEQPRGMAVTISVKSEKISTLSSENKIISFKEMNPPDNIKDTKSDIIFFQRSVPGHDNKMQFESSSYEGYFLASEKERDLFKLILKKEDELGDRSIMFTVQNED = 0.13

// moving on: another record for HEK-Blue activity, No BP, DF-10000
Query: Please supply the value of reported HEK-Blue activity, No BP, DF-10000 for the item IL-18 variant T34E, N41D, K53N, S55R (ligand) YFGKLESKLSVIRNLNDQVLFIDQGNRPLFEDMEDSDMRDDAPRTIFIISMYNDRQPRGMAVTISVKSEKISTLSSENKIISFKEMNPPDNIKDTKSDIIFFQRSVPGHDNKMQFESSSYEGYFLASEKERDLFKLILKKEDELGDRSIMFTVQNED
Reply: 0.14
